assay-system: T1, hCEACAM7, human CEACAM7 ECD (36-248) (human)
T1 construct: With 24 amino acid extension containing a His-Tag
T1 chain: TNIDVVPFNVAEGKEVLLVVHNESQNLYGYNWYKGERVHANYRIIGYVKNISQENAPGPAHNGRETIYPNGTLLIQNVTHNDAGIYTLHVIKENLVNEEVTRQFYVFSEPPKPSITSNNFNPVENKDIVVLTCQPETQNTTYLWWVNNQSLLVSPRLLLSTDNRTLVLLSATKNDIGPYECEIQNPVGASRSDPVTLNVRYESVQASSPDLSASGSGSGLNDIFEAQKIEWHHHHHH
experimental-protocol: ELISA
measured-metric: percentage of binding compared to full binding with human CEACAM5 (%)

| binder | value-observed |
| --- | --- |
| huMAb2-4 (antibody, human IgG1, kappa, V domains shown, Humanized MAb2, human IgG1 / Ckappa; also called MAb2_VL1d VH1-IgG1; MAb2_VL1dVH1-IgG1) VH: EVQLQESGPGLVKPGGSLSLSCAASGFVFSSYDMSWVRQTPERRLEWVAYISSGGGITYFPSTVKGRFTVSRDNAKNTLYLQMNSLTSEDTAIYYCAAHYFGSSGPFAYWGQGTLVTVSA VL: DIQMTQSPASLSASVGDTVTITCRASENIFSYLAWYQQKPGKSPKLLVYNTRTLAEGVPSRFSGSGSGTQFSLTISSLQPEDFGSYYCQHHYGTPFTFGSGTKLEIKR | 0.3 |
| huMAb2-3 (antibody, human IgG1, kappa, V domains shown, Humanized MAb2, human IgG1 / Ckappa; also called MAb2_VL1cVH1a-IgG1) VH: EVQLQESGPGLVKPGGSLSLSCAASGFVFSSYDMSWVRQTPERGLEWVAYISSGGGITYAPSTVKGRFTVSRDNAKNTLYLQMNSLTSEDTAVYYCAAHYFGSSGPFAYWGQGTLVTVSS VL: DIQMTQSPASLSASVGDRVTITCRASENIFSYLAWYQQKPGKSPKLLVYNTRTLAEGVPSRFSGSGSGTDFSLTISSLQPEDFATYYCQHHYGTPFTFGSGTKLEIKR | 0.3 |
| huMAb2-1 (antibody, V domains shown, Humanized MAb2 (VL1 + VH1) fused to human IgG1 and human Ckappa constant domains; also called MAb2_VL1VH1-IgG1; MAb2VL1VH1-IgG1) VH: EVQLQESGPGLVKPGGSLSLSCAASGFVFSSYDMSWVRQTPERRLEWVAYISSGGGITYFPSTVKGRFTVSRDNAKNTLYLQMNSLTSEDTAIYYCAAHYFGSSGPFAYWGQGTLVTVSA VL: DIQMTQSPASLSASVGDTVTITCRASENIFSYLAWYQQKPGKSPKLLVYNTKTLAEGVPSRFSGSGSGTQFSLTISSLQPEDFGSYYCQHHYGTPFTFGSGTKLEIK | 0.3 |
| huMAb2-2 (antibody, V domains shown, Humanized MAb2 (VL1a + VH1a) fused to human IgG1 and human Ckappa constant domains; also called MAb2_VL1aVH1a-IgG1; MA2_VL1aVH1a-IgG1) VH: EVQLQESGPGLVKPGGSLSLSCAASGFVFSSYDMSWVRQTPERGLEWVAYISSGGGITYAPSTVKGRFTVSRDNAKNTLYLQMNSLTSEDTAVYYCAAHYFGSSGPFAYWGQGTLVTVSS VL: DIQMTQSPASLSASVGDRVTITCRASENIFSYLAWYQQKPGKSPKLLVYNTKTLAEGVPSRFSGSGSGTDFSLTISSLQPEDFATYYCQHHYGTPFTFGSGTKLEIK | 0.3 |
| chMAb2 (antibody, human IgG1, kappa, V domains shown, Chimeric, human IgG1, Ck isotype; also called MAb2-IgG1; chimeric MAb2) VH: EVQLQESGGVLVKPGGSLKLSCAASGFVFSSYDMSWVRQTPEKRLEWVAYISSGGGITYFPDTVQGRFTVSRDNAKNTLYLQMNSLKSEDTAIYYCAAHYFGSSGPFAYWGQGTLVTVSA VL: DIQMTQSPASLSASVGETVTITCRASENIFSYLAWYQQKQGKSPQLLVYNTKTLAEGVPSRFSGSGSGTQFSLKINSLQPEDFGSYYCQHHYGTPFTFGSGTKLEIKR | 0.3 |
